tested on: MOLT-4; experiment: Cell viability (CellTiter Glo), compressed perturbation pools with informed pool design, MAX-based deconvolution, MOLT-4; settings: MOLT-4; compressed perturbation pools, informed pool design; MAX-based deconvolution

molecule: CC[C@H](Nc1ncnc2[nH]cnc12)c1nc2cccc(F)c2c(=O)n1-c1ccccc1 [Idelalisib]
DRS, MOLT-4, MAX: 0.00
--
molecule: COc1cc2nccc(Oc3ccc(NC(=O)NC4CC4)c(Cl)c3)c2cc1C(N)=O [Lenvatinib]
DRS, MOLT-4, MAX: 0.00
--
molecule: CCN1CCN(Cc2ccc(Nc3ncc(F)c(-c4cc(F)c5nc(C)n(C(C)C)c5c4)n3)nc2)CC1 [Abemaciclib]
DRS, MOLT-4, MAX: 0.00
--
molecule: O=C(/C=C\n1cnc(-c2cc(C(F)(F)F)cc(C(F)(F)F)c2)n1)NNc1cnccn1 [Selinexor]
DRS, MOLT-4, MAX: 24.91

###

The entries below come with measured DRS, MOLT-4, MAX values attached.
system: MOLT-4; experiment: Cell viability (CellTiter Glo), compressed perturbation pools with informed pool design, MAX-based deconvolution, MOLT-4; conditions: MOLT-4; compressed perturbation pools, informed pool design; MAX-based deconvolution
measure: DRS, MOLT-4, MAX

compound: NC(=O)c1cccc2cn(-c3ccc([C@@H]4CCCNC4)cc3)nc12
value_observed: 0.00
--
compound: Cc1ccc(NC(=O)c2ccc(CN3CCN(C)CC3)cc2)cc1Nc1nccc(-c2cccnc2)n1
value_observed: 0.00
--
compound: C[C@@H](Oc1cc(-c2cnn(C3CCNCC3)c2)cnc1N)c1c(Cl)ccc(F)c1Cl
value_observed: 0.00
--
compound: CNC(=O)c1ccc(N2C(=S)N(c3cnc(C#N)c(C(F)(F)F)c3)C(=O)C23CCC3)cc1F [Apalutamide]
value_observed: 4.94

###

tested on: co-culture of three cancer cell lines; experiment: Cell viability (CellTiter Glo) of compressed target pools, co-cultures of three cell lines (Target Compression); format: cell-based; conditions: 5 Pick 3, Pool 5 (REH, CCRF-HSB2, MOLT-4)
The entries below come with measured DRS of pool values attached.

compound: N#Cc1ccnc(N2C(=O)CC[C@H]2C(=O)N(c2cncc(F)c2)[C@H](C(=O)NC2CC(F)(F)C2)c2ccccc2Cl)c1 [Ivosidenib]
DRS of pool: 0.88
//
compound: Cc1[nH]c2ccccc2c1CCNCc1ccc(/C=C/C(=O)NO)cc1 [Panobinostat]
DRS of pool: 16.48
//
compound: CC1(C)CCC(CN2CCN(c3ccc(C(=O)NS(=O)(=O)c4ccc(NCC5CCOCC5)c([N+](=O)[O-])c4)c(Oc4cnc5[nH]ccc5c4)c3)CC2)=C(c2ccc(Cl)cc2)C1 [Venetoclax]
DRS of pool: 2.43
//
compound: COc1c(OCCCN2CCOCC2)ccc2c1N=C(NC(=O)c1cnc(N)nc1)N1CCN=C21 [Copanlisib]
DRS of pool: 10.79

###

test system: JURKAT; assay: ATP-based luminescence cell viability (CellTiter Glo), drug response score, JURKAT; details: Target compression, 7 Pick 3 pools
The entries below come with measured DRS from deconvolution values attached.
measure: DRS from deconvolution

cpd_smiles: N#Cc1ccnc(N2C(=O)CC[C@H]2C(=O)N(c2cncc(F)c2)[C@H](C(=O)NC2CC(F)(F)C2)c2ccccc2Cl)c1
value_observed: 0.70
--
cpd_smiles: CC1(C)CCC(CN2CCN(c3ccc(C(=O)NS(=O)(=O)c4ccc(NCC5CCOCC5)c([N+](=O)[O-])c4)c(Oc4cnc5[nH]ccc5c4)c3)CC2)=C(c2ccc(Cl)cc2)C1
value_observed: 1.88
--
cpd_smiles: COc1c(OCCCN2CCOCC2)ccc2c1N=C(NC(=O)c1cnc(N)nc1)N1CCN=C21
value_observed: 2.30
--
cpd_smiles: Cc1[nH]c2ccccc2c1CCNCc1ccc(/C=C/C(=O)NO)cc1
value_observed: 13.23
